Reported values of Lambsquarters plant response rating for individual entries
# Test system: lambsquarters
# test: Test C preemergence
# Assay type: in vivo, Chenopodium album
# experimental-context: preemergence, 125 g ai/ha; scale 0 to 100, 0 is no effect, 100 is complete control
property-name: Lambsquarters plant response rating

compound: CCCc1cc(C(=O)NCC(F)(F)F)nn1Cc1ccnc(C(F)(F)F)c1 [Compound 105]
experimental-system: lambsquarters
observed: 100
--
compound: CCCc1cc(C(=O)NCC)nn1Cc1ccnc(C(F)(F)F)c1 [Compound 95]
experimental-system: lambsquarters
observed: 100
--
compound: CCc1cc(C(=O)NC(C)C)nn1Cc1ccnc(C(F)(F)F)c1 [Compound 103]
experimental-system: lambsquarters
observed: 100
--
compound: CCOc1cc(C(=O)NCC(F)(F)F)nn1Cc1ccnc(C(F)(F)F)c1 [Compound 104]
experimental-system: lambsquarters
observed: 100
--
compound: CCc1cc(C(=O)NOC(C)C)nn1Cc1ccnc(C(F)(F)F)c1 [Compound 101]
experimental-system: lambsquarters
observed: 95
